assay-procedure: Inhibition of BACE1 in human SH-SY5Y cells harboring wild type APP695 assessed as reduction in amyloid beta (1 to 42) level after 24 hrs by ELISA method
endpoint: IC50 (µM)

Here's what some known entries look like.
Oc1c(CN2CCCC2)cc(Nc2ccnc3cc(Cl)ccc23)cc1CN1CCCC1; 11.2
c1ccc(-c2ccc(NCCCN3CCCCC3)c(OCCN3CCCCC3)c2)cc1; 4

(I) CN(C)Cc1ccccc1-c1ccc(NCCCN2CCCCC2)c(OCCC2CCCCC2)c1
(II) CN(C)Cc1ccccc1-c1ccc(NCCN2CCCCC2)c(OCCN2CCCCC2)c1
(III) c1ccc(-c2ccc(NCCCN3CCCCC3)c(OCCN3CCCCC3)c2)c(CN2CCOCC2)c1
Req: Task field, ranking: reported IC50, descending order. Sort the labels as requested; that list is your answer.
Resp: III, I, II
(III: 4.2 µM, I: 2.8 µM, II: 1.2 µM)

(A) c1cc(-c2ccc(NCCCN3CCCCC3)c(OCCN3CCCCC3)c2)ccc1CN1CCCCC1
(B) CC(C)CN(CCCN1CCN(CCCNc2nc3ccccc3[nH]2)CC1)CC(C)C
(C) c1ccc(-c2cccc(OCCN3CCCCC3)c2)cc1
Req: Order by IC50, ascending. Sort the labels as requested; that list is your answer.
Resp: B, A, C
